Every entry's value here was drawn from ChEMBL document CHEMBL1123780.

Kindly state MIC for each of the entries shown.
- System: Vero
- Protocol Text: Antiviral activity against HSV-2 (K979) in Vero cells
- Type: functional
- Assay Conditions: Chlorocebus sabaeus
Please reply with the bare figure in µg/mL and do not write the unit itself.

// query MIC value for entry O=c1[nH]c(=O)n([C@H]2C[C@H](O)[C@@H](CO)O2)cc1I
1

Then this compound: O=c1[nH]c(=O)n([C@H]2C[C@H](O)[C@@H](CO)O2)cc1CCCl
30

Try O=c1[nH]c(=O)n([C@@H]2O[C@H](CO)[C@@H](O)[C@@H]2F)cc1CCF next.
0.3

What about Nc1nc(=O)n([C@@H]2O[C@H](CO)[C@@H](O)[C@H]2F)cc1I ?
0.1

Ok, now O=c1[nH]c(=O)n([C@@H]2O[C@H](CO)[C@@H](O)[C@@H]2F)cc1CCCl
10

Try Cc1cn([C@@H]2O[C@H](CO)[C@@H](O)[C@@H]2F)c(=O)[nH]c1=O next.
0.3

Next compound up: O=c1[nH]c(=O)n([C@@H]2O[C@H](CO)[C@@H](O)[C@@H]2F)cc1I
0.1

Param item: O=c1[nH]c(=O)n([C@H]2C[C@H](O)[C@@H](CO)O2)cc1CCF
3

Another compound: O=c1[nH]c(=O)n(C2O[C@H](CO)[C@@H](O)[C@@H]2O)cc1CCCl (stereo partly specified)
100

Another compound: NC1=NC(=O)C2N=CN(COCCO)C2=N1 (stereo unspecified)
1

Note, next up: O=c1[nH]c(=O)n([C@H]2C[C@H](O)[C@@H](CO)O2)cc1/C=C/Br
30

###

- Tested on: Vero
- Protocol Text: Proliferation of Vero cells by propagation on day 4 by measuring optical density (absorbance) at 30 ug/mL
- Assay type: functional, Chlorocebus sabaeus
// returns not fulfilled unless Control is strictly below 70%, in which case fulfilled

Answer whether the compound O=c1[nH]c(=O)n([C@H]2C[C@H](O)[C@@H](CO)O2)cc1CCCl has Control strictly less than 70%
not fulfilled

// next record O=c1[nH]c(=O)n([C@H]2C[C@H](O)[C@@H](CO)O2)cc1CCF
not fulfilled

Note, next up: O=c1[nH]c(=O)n([C@H]2C[C@H](O)[C@@H](CO)O2)cc1I
fulfilled

Again, but for O=c1[nH]c(=O)n([C@H]2C[C@H](O)[C@@H](CO)O2)cc1/C=C/Br
not fulfilled

###

- Test system: HEp-2
- Protocol Text: Proliferation of Hep-2 cells by propagation on day 4 by measuring optical density (absorbance) at 330 ug/mL
- Type: functional, Homo sapiens
Kind request: treat 40% as inclusive, so Control at 40% or higher is satisfied, anything lower is not satisfied.

Form field: Control at least 40%? Entry: O=c1[nH]c(=O)n([C@H]2C[C@H](O)[C@@H](CO)O2)cc1I
not satisfied

Now consider O=c1[nH]c(=O)n([C@H]2C[C@H](O)[C@@H](CO)O2)cc1/C=C/Br .
not satisfied

Same for O=c1[nH]c(=O)n([C@H]2C[C@H](O)[C@@H](CO)O2)cc1CCCl
satisfied

Here is the next compound: O=c1[nH]c(=O)n([C@H]2C[C@H](O)[C@@H](CO)O2)cc1CCF
satisfied

What do you get for Nc1nc(=O)n([C@@H]2O[C@H](CO)[C@@H](O)[C@H]2F)cc1I ?
not satisfied

Try this compound too: O=c1[nH]c(=O)n([C@@H]2O[C@H](CO)[C@@H](O)[C@@H]2F)cc1I
not satisfied

What about this compound? O=c1[nH]c(=O)n([C@@H]2O[C@H](CO)[C@@H](O)[C@@H]2F)cc1CCF
satisfied

Then this compound: O=c1[nH]c(=O)n([C@@H]2O[C@H](CO)[C@@H](O)[C@@H]2F)cc1CCCl
satisfied

Field entry: Cc1cn([C@@H]2O[C@H](CO)[C@@H](O)[C@@H]2F)c(=O)[nH]c1=O
not satisfied

###

- System: HEp-2
- Protocol Text: Antiviral activity against HSV-2 (K979) in human epithelial (Hep-2) cells
- Type: functional
Readout Name: MIC (µg/mL)
Unit µg/mL implied. Number only.

Entry O=c1[nH]c(=O)n([C@H]2C[C@H](O)[C@@H](CO)O2)cc1I [IDOXURIDINE] , system HEp-2: what MIC was measured?
0.3

Entry to check: O=c1[nH]c(=O)n([C@@H]2O[C@H](CO)[C@@H](O)[C@@H]2F)cc1CCF
0.1

And what about the compound O=c1[nH]c(=O)n([C@H]2C[C@H](O)[C@@H](CO)O2)cc1CCF ?
1

Try this compound next: NC1=NC(=O)C2N=CN(COCCO)C2=N1 (stereo unspecified)
3

Try this compound too: Nc1nc(=O)n([C@@H]2O[C@H](CO)[C@@H](O)[C@H]2F)cc1I
0.03

# repeat for O=c1[nH]c(=O)n([C@H]2C[C@H](O)[C@@H](CO)O2)cc1/C=C/Br [BRIVUDINE]
3

// query: O=c1[nH]c(=O)n(C2O[C@H](CO)[C@@H](O)[C@@H]2O)cc1CCCl (stereo partly specified)
100

Can you check O=c1[nH]c(=O)n([C@@H]2O[C@H](CO)[C@@H](O)[C@@H]2F)cc1I [FIALURIDINE] next?
0.1

Consider next the compound O=c1[nH]c(=O)n([C@@H]2O[C@H](CO)[C@@H](O)[C@@H]2F)cc1CCCl in the same way.
1

Cool, now Cc1cn([C@@H]2O[C@H](CO)[C@@H](O)[C@@H]2F)c(=O)[nH]c1=O [5-METHYL-2'-FLUOROARAURACIL]
0.1

What would you report for O=c1[nH]c(=O)n([C@H]2C[C@H](O)[C@@H](CO)O2)cc1CCCl ?
3

###

Exercise: state measured MIC for each of the compounds provided.
- Test system: Vero
- Protocol Text: Antiviral activity against HSV-1 (Brand) in Vero cells
- Type: functional
- Assay Conditions: Chlorocebus sabaeus
Form entry: value (µg/mL) — number only.

Which MIC is reported for this compound? O=c1[nH]c(=O)n([C@@H]2O[C@H](CO)[C@@H](O)[C@@H]2F)cc1I [FIALURIDINE]
0.01

Now the compound O=c1[nH]c(=O)n(C2O[C@H](CO)[C@@H](O)[C@@H]2O)cc1CCCl (stereo partly specified)
30

Try this compound too: O=c1[nH]c(=O)n([C@H]2C[C@H](O)[C@@H](CO)O2)cc1CCCl
0.01

Another compound to look at: Cc1cn([C@@H]2O[C@H](CO)[C@@H](O)[C@@H]2F)c(=O)[nH]c1=O [5-METHYL-2'-FLUOROARAURACIL]
0.03

Thanks! And NC1=NC(=O)C2N=CN(COCCO)C2=N1 (stereo unspecified) ?
0.003

Same read-out for O=c1[nH]c(=O)n([C@@H]2O[C@H](CO)[C@@H](O)[C@@H]2F)cc1CCF ?
0.03

Thanks! And O=c1[nH]c(=O)n([C@@H]2O[C@H](CO)[C@@H](O)[C@@H]2F)cc1CCCl ?
0.3

Input Nc1nc(=O)n([C@@H]2O[C@H](CO)[C@@H](O)[C@H]2F)cc1I
0.01

Follow-up entry: O=c1[nH]c(=O)n([C@H]2C[C@H](O)[C@@H](CO)O2)cc1CCF
0.1

Input O=c1[nH]c(=O)n([C@H]2C[C@H](O)[C@@H](CO)O2)cc1I [IDOXURIDINE]
0.1

Further, for O=c1[nH]c(=O)n([C@H]2C[C@H](O)[C@@H](CO)O2)cc1/C=C/Br [BRIVUDINE] ?
0.001
